molecular target: thymidine kinase (Oryctolagus cuniculus); test: Inhibitory affect against rabbit thymus thymidine kinase
REPORTED_PROPERTY: Ki (mM)

1) O=c1[nH]c(=S)ccn1[C@H]1CC[C@@H](CO)O1 | 1.27

a = O=c1[nH]c(=S)ccn1[C@H]1C=C[C@@H](CO)O1
b = O=c1ccn([C@H]2C=C[C@@H](CO)O2)c(=O)[nH]1
Qu. Out of a and b , name the one with the higher Ki. In your reply, give the label of the chosen option.
Ans. a
(a: 1.69 mM, b: 0.445 mM)
